Value source: ChEMBL document CHEMBL3885881

// reported PHOSPHORUS for each item listed
Organism: Rattus norvegicus
measurement-description: DrugMatrix - Regimen: Daily Repeat
Assay type: toxicity, organism-based, Sprague-Dawley
Parameters: regimen Daily Repeat, gender Male, age 6-8 weeks
condition-description: in vivo, po, 0 mg/kg, 120 h, tissue Plasma, route oral GAVAGE, dose level Control, time 5 day, vehicle 100 % WATER
Number in mg/dL, nothing else.

Record excerpt, results attached:
> print(dat)
                                   molecule  units.text  measured.result
1                   Clc1cccc(Cl)c1N=C1NCCN1       mg/dL            10.68
2                 CNNCc1ccc(C(=O)NC(C)C)cc1       mg/dL            10.78
3          C[C@H](CS)C(=O)N1CCC[C@H]1C(=O)O       mg/dL            12.03
4  COc1cc2nc(N3CCN(C(=O)C4COc5ccccc5O4)CC3)nc(N)c2cc1OC (stereo not given)       mg/dL            10.38
5  C[C@H]1c2cccc(O)c2C(=O)C2=C(O)[C@]3(O)C(=O)C(C(N)=O)=C(O)[C@@H](N(C)C)[C@@H]3[C@@H](O)[C@@H]21.O       mg/dL            10.38

Quick note, PHOSPHORUS for NCCCCCC(=O)O landed at 11.67

Quick note, PHOSPHORUS for CN(C)CCCN1c2ccccc2Sc2ccc(Cl)cc21 landed at 12.7

Quick note, PHOSPHORUS for Nc1c2c(nc3ccccc13)CCCC2 landed at 11.28

Quick note, PHOSPHORUS for C=CCC1(C(C)CCC)C(=O)NC(=O)NC1=O (stereo not given) landed at 10.13

Quick note, PHOSPHORUS for CC(O)CO (stereo not given) landed at 11.67
